Biological target: T1, CTLA-4 on human T lymphocytes (PBMC, CD3+ T cells) (human, UniProt P16410 36-223)
T1 sequence (looked up): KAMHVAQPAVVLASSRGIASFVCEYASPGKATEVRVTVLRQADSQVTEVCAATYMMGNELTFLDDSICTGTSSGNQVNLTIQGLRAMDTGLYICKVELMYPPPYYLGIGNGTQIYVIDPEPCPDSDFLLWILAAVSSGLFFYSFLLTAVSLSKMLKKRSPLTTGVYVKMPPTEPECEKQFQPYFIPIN
Test: cell-based or functional assay
quantity.name: IL-2 secretion, pg/ml, at 1.1 ug/ml, N = 2 (pg/mL)

- binder: "31C12F3 fully human CTLA-4 antibody (human IgG1, kappa) (antibody, V domains shown, also called mAb010) VH: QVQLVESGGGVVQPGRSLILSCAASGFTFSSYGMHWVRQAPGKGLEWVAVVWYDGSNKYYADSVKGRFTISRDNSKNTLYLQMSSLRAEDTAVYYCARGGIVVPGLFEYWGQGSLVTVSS VL: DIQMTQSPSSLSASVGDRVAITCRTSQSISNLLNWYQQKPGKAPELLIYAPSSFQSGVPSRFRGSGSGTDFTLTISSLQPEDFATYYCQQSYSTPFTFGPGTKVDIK"
  data.value: 3630
